Experiment: antimalarial activity against Dd2 strain (AID 2302);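 also: 0% = DMSO untreated growth and 100% = chloroquine plus artemisinin killed control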
Details: P. falciparum Dd2 in RBCs, LDH growth readout, 72 h; at 2 µM; hits give high values
TEST READOUT: growth inhibition (%)
Note: unit % is implicit; provide only the numeric part.

Request: Data request, read-out growth inhibition, for c1ccc(Oc2ccc(Nc3ccnc4cc(-c5ccc(CNCCN6CCOCC6)o5)ccc34)cc2)nc1
Result: 100

Request: Data request, read-out growth inhibition, for Cc1cc(Nc2ccc(O)cc2)nc2cc(O)ccc12
Result: 9

Request: Data request, read-out growth inhibition, for CS(=O)(=O)Nc1cccc(-c2cnc3[nH]cc(-c4ccc(C(=O)O)cc4)c3c2)c1
Result: 82

Request: Data request, read-out growth inhibition, for COc1ccccc1NC(=O)Nc1cccc(-c2ccc(-c3nc4ccc(C(F)(F)F)cc4[nH]3)cc2)c1
Result: 76

Request: Data request, read-out growth inhibition, for O=C(/C=C/c1ccc(Cl)c(Cl)c1)NCCCCCN1CCC(c2c[nH]c3cc(O)ccc23)CC1
Result: 2

Request: Data request, read-out growth inhibition, for O=C(CN1CCC(NCc2cnc(-c3ccc(Cl)cc3)[nH]2)CC1)N1CCc2ccccc21
Result: 5

Request: Data request, read-out growth inhibition, for Oc1ccc(CCNc2nc(N/N=C/C=C/c3ccc(Cl)cc3)nc(N3CCNCC3)n2)cc1
Result: 52

Request: Data request, read-out growth inhibition, for COc1ccc2nccc(N3CCC(O)(CCNCc4ccc5c(n4)NC(=O)CS5)CC3)c2n1
Result: 21

Request: Data request, read-out growth inhibition, for COc1ccc(CCN(C)CCCCNC(=O)c2ccc(NC(=O)c3ccc(Cl)cc3)cc2)c(OC)c1
Result: 0
